Parameter Hill slope: see the listing below.
Target: TbPTR1 (Trypanosoma brucei brucei, UniProt O76290)
Sequence (O76290 1-268): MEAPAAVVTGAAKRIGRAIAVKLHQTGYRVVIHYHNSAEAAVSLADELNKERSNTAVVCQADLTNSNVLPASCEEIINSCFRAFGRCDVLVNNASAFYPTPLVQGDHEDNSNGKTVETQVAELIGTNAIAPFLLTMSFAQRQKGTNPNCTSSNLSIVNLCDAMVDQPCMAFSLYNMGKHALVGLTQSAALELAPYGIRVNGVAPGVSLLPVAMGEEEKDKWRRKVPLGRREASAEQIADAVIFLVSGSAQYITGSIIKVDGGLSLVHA
Test: TbPTR1 activity assay
Format: biochemical
Conditions: averaged over at least two independent measurements

compound.smiles	Hill slope
Nc1nc2ccccc2n1Cc1ccc(Cl)c(Cl)c1	0.7
Nc1nc2ccc(C(=O)N3CCCCC3)cc2s1	0.6
Cc1cccc(-c2ccc3nc(N)[nH]c3c2)c1	1.1
Nc1nc2ccc(Cl)cc2[nH]1	0.9
COC(=O)c1ccc2nc(N)sc2c1	0.6
Nc1nc2cccc(-c3ccccc3)c2n1Cc1ccc(Cl)c(Cl)c1	0.7
Nc1nc2ccccc2[nH]1	0.9
Nc1nc2cccc(Cl)c2n1Cc1ccc(Cl)c(Cl)c1	1.0

Values were extracted from paper PMC2966039.
